# targetUnderTest: PAK1 (Homo sapiens, UniProt Q13153)
# Sequence (Q13153 whole entry): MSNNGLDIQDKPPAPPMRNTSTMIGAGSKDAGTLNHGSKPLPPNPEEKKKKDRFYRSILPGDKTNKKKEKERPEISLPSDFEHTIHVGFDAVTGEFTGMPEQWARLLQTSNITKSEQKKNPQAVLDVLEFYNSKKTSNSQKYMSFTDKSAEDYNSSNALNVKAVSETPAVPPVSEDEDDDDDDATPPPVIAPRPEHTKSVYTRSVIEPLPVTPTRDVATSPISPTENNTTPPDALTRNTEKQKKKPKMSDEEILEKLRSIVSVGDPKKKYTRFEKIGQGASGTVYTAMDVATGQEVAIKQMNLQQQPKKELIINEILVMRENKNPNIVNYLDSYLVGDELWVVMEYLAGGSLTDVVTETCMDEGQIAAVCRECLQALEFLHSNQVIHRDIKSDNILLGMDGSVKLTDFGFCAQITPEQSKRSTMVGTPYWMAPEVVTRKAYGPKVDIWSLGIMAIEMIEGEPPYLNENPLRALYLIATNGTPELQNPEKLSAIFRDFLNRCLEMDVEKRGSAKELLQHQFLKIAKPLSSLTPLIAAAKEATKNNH
# experimentalDetails: Z'Lyte fluorescence-based (FRET) PAK kinase assay, PAK1
# Format: biochemical
# conditionsUsed: Table 1 of Example 29 (own compound numbering); 50 μM ATP
pIC50: −log10 of the molar value.
Record form. Attribute: pIC50. Fill in for each entry.

The compound listed as O=c1ccc2cnc(Nc3ccc(N4CCNCC4)c(F)c3)nc2n1Cc1ccccc1-c1ncno1 [Compound 132] shows pIC50 equal to > 6.00

The compound listed as CN1CCN(c2ccc(Nc3ncc4ccc(=O)n(Cc5ccccc5)c4n3)cc2)CC1 [compound 80] shows pIC50 equal to 5.00 to 6.00

The compound listed as COc1ccccc1Cn1c(=O)ccc2cnc(Nc3ccc(N4CCN(C)CC4)cc3)nc21 [compound 88] shows pIC50 equal to > 6.00

The compound listed as CN(C)CCNc1ccc(Nc2ncc3ccc(=O)n(C4CCCC4)c3n2)cc1 [compound 60] shows pIC50 equal to 5.00 to 6.00

The compound listed as O=c1c(-c2ccccc2)cc2cnc(Nc3ccc(NC4CCCNC4)cc3)nc2n1Cc1ccccc1C(F)(F)F (centres unmarked) [Compound 167] shows pIC50 equal to > 6.00

The compound listed as O=c1ccc2cnc(Nc3ccc(N4CCNCC4)c(F)c3)nc2n1C1Cc2ccccc2C1 [compound 77] shows pIC50 equal to > 6.00

The compound listed as CN(C)CC(c1ccccc1)n1c(=O)ccc2cnc(Nc3ccc(N4CCN(C)CC4)cc3)nc21 (centres unmarked) [compound 75] shows pIC50 equal to < 5.00

The compound listed as O=c1ccc2cnc(Nc3ccc(N4CCNCC4)c(F)c3)nc2n1C1CCc2ccccc2C1 (centres unmarked) [compound 78] shows pIC50 equal to > 6.00
